# reported self-splicing fitness (ln); entries follow
- TEST_METHOD_NOTES: self-splicing fitness, log relative to wild type (ln ratio); higher = more splicing; Tetrahymena group I intron in knt gene, E. coli kanamycin selection, DiMSum; sequences stand for … in CUCUCU…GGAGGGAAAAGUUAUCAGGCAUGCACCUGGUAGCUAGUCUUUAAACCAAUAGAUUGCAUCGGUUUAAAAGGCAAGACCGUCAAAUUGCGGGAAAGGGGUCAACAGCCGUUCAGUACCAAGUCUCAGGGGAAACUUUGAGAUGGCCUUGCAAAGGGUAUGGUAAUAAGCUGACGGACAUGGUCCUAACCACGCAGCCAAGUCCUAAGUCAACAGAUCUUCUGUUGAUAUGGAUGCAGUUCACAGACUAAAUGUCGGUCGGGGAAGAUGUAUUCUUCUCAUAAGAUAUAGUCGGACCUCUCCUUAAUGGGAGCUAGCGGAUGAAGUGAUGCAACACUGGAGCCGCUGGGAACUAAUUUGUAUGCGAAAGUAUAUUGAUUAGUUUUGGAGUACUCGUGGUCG;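 also: selection with 25 µg/mL kanamycin versus none on LB agar overnight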
- CONDITION_DESCRIPTION: 30 °C
Lab note: jot down the number only; don't add units.

{"columns": ["SEQUENCE_CONTENT", "ENDPOINT_NAME", "NUMERIC_RESULT"],
 "data": [
  ["UUAUAGCAAUAUUACGUAUC", "self-splicing fitness (ln)", -3.79],
  ["CACUAGCAAUAUUACGUCUC", "self-splicing fitness (ln)", -4.18],
  ["CAGUAGCAAUAUUACGGACA", "self-splicing fitness (ln)", -2.94],
  ["GCAGAGCAAUAUUACGCUGC", "self-splicing fitness (ln)", -3.42],
  ["GCGUAGCAAUAUUACGCCGU", "self-splicing fitness (ln)", -2.86],
  ["AUCGAGCAAUAUUACGGACU", "self-splicing fitness (ln)", -0.916],
  ["UCCUAGCAAUAUUACGGAGG", "self-splicing fitness (ln)", -2.63],
  ["AUGGAGCAAUAUUACGGCGU", "self-splicing fitness (ln)", 0.125],
  ["ACAUAGCAAUAUUACGACUC", "self-splicing fitness (ln)", -0.657],
  ["CCGUAGCAAUAUUACGCUUU", "self-splicing fitness (ln)", -3.52]
]}

**Q:** Value lookup for self-splicing fitness (ln); key = ACAAAGCAAUAUUACGAAGG
**A:** -2.52

**Q:** Value lookup for self-splicing fitness (ln); key = GUAUAGCAAUAUUACGAGGG
**A:** -3.15
